Some molecules, each annotated with its measured %Inh.
System: MST1R
Condition context: concentration: 1 μM, replicates: in singlicate; n = 1;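 also: KINOMEscan kinase panel screen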
Your answer should be a plain number; it is taken to be in %.

Worked cases, %Inh given:
Molecule	Measured value
Cc1ccccc1Cn1ccn2c(=O)cc(N3CCOCC3)nc12 [GSK2269905]	17
COc1ccc(CSc2nnc(-c3ccc4nccn4c3)o2)cc1C(F)(F)F	0

Prompt line: Retrieve %Inh on MST1R; query O=C1NC(=O)C(c2ccc(Cl)cc2)=C1Nc1cccc(Cl)c1 [SB-317651]
Response line: 9

Prompt line: Retrieve %Inh on MST1R; query CNc1cc(-c2ccc3c(N)n[nH]c3c2)nc(N)n1 [GSK2224810]
Response line: 27

Prompt line: Retrieve %Inh on MST1R; query `CCc1ccc(-c2ccc3c(c2)-c2n[nH]cc2S(=O)(=O)N3C)cc1`
Response line: 0

Prompt line: Retrieve %Inh on MST1R; query FC(F)(F)c1ccccc1-c1cc(-c2c[nH]nc2-c2ccccn2)ccn1 [GW679396]
Response line: 13

Prompt line: Retrieve %Inh on MST1R; query Nc1cccc(-c2ccc3c(N)n[nH]c3c2)n1 [GSK2192730]
Response line: 33

Prompt line: Retrieve %Inh on MST1R; query CNc1nc(-c2ccc3c(N)n[nH]c3c2)cc(N2C[C@@H](C(=O)Nc3ccccc3)CC[C@H]2C)n1 [GSK2298859]
Response line: 26

---

Test system: AMPK-alpha1
Construct: gene PRKAA1
Condition context: concentration: 1 μM, replicates: in singlicate; n = 1
Quantity measured: %Inh (%)
Your answer should be a plain number; it is taken to be in %.

Worked cases, %Inh given:
Molecule	%Inh / %
Cc1c(Cn2c3ccccc3n3c(=O)cc(N4CCOCC4)nc23)cccc1C(F)(F)F [GSK2306394]	0
O=C(Nc1n[nH]c2nc(-c3ccco3)c(Br)cc12)C1CCN(Cc2ccccc2)C1.O=C(O)[C@H](O)[C@@H](O)C(=O)O (centres unmarked) [SB-742034]	9
Fc1ccc(-c2nn3cccc(F)c3c2-c2ccncc2)cc1 [GW475620]	42
COc1cc2ncnc(Nc3cccc(Br)c3)c2cc1OC.Cl [GI230329]	0

Prompt line: Retrieve %Inh on AMPK-alpha1; query CNc1nc(-c2ccc3c(N)n[nH]c3c2)cc(N2C[C@@H](C(=O)NC3CCCCC3)OC[C@H]2C)n1 [GSK2375584]
Response line: 6

Prompt line: Retrieve %Inh on AMPK-alpha1; query `COc1ccc(CSc2nnc(-c3ccc4ncsc4c3)o2)cc1C(F)(F)F`
Response line: 0

Prompt line: Retrieve %Inh on AMPK-alpha1; query `COc1ccc(CSc2nnc(-c3ccc4nccn4c3)o2)cc1C(F)(F)F`
Response line: 3

Prompt line: Retrieve %Inh on AMPK-alpha1; query NS(=O)(=O)c1cccc(N/C=C2\C(=O)Nc3ccc(S(=O)(=O)Cc4c(Cl)cccc4Cl)cc32)c1 [GSK398099]
Response line: 0

---

Some molecules, each annotated with its measured %Inh.
Tested on: CSNK1G2
Condition context: concentration: 1 μM, replicates: in singlicate; n = 1
Answer format: value, then unit.

Molecule	%Inh
O=C(Nc1n[nH]c2nc(-c3cccs3)c(Br)cc12)C1CCCC1	0%

Prompt line: Please report the measured %Inh for `CSc1ccc(-c2nc3n(c2-c2ccncc2)CCC3)cc1`
Response line: 0%

Prompt line: Please report the measured %Inh for `Cc1ccc(NC(=O)c2ccc(Cl)cc2)cc1-c1ccc(C(=O)Nc2ccncc2)cc1`
Response line: 9%

Prompt line: Please report the measured %Inh for COC(=O)C(NC(=O)NC1CCN(c2ccnc(Nc3ccc(F)cc3)n2)C1)c1ccccc1 (centres unmarked)
Response line: 1%

Prompt line: Please report the measured %Inh for `CCn1c(-c2ccccc2)nc2cnccc21`
Response line: 0%

Taken from paper PMC5540273.
